Recorded values, source PubChem BioAssay AID1745844.

System: rodent lifetime carcinogenesis bioassay, tumor incidence TD50
Test: carcinogenic potency in animals, long-term in vivo studies, CPDB compilation (AID 1745844)
Conditions: rat; strain Sprague-Dawley; males; by gavage; site: adrenal gland; lesion: cortical carcinoma; dosed 104 weeks; study length 104 weeks
recorded-endpoint: TD50 (mg/kg/day)
Kindly provide the numeric value in mg/kg/day only, without the unit symbol.

Incoming: Requested field: TD50. Item: "C=CC=O"
Outgoing: 57.7

----------
Parameter: TD50. Scope: all listed entries.
Test system: rodent lifetime carcinogenesis bioassay, tumor incidence TD50
Experiment: carcinogenic potency in animals, long-term in vivo studies, CPDB compilation (AID 1745844)
Settings: mouse; strain Swiss albino; females; in drinking water; site: lung; lesion: several types; types named in the paper; dosed 121 weeks; study length 121 weeks

NNCc1ccccc1	85.3 mg/kg/day

Proceed to the following item.
Incoming: Query: TD50; subject: "NNc1ccc(C(=O)O)cc1"
Outgoing: 1140 mg/kg/day

----------
System: rodent lifetime carcinogenesis bioassay, tumor incidence TD50
Experiment: carcinogenic potency in animals, long-term in vivo studies, CPDB compilation (AID 1745844)
Conditions: mouse; strain B6C3F1; females; in feed; site: forestomach; lesion: squamous-cell carcinoma; dosed 96 weeks; study length 96 weeks
recorded-endpoint: TD50

O=C(O)C=Cc1ccc(O)c(O)c1	43300 mg/kg/day

Pending compound:
Incoming: Which TD50 is reported for this compound? "Oc1ccc2c(c1)OCO2"
Outgoing: 8330 mg/kg/day

----------
System: rodent lifetime carcinogenesis bioassay, tumor incidence TD50
Assay: carcinogenic potency in animals, long-term in vivo studies, CPDB compilation (AID 1745844)
Conditions: rat; strain Fischer 344; males; in feed; site: liver + skin + subcutaneous tissue + thyroid gland + Zymbal's gland; lesion: hepatocellular carcinoma + sebaceous adenoma + squamous-cell carcinoma + trichoepithelioma + fibroma + follicular-cell adenoma + fol; dosed 103 weeks; study length 104 weeks
recorded-endpoint: TD50 (mg/kg/day)
# output: bare number, implied unit mg/kg/day

Incoming: So what TD50 did "N=C1C=CC(=C(c2ccc(N)cc2)c2ccc(N)cc2)C=C1" get with rodent lifetime carcinogenesis bioassay, tumor incidence TD50?
Outgoing: 21.2

----------
System: rodent lifetime carcinogenesis bioassay, tumor incidence TD50
Experiment: carcinogenic potency in animals, long-term in vivo studies, CPDB compilation (AID 1745844)
Conditions: rat; strain Fischer 344; females; inhaled; site: liver; lesion: hepatocellular adenoma + hepatocellular carcinoma + neoplastic nodule; dosed 104 weeks; study length 106 weeks
recorded-endpoint: TD50 (mg/kg/day)
# number only, unit mg/kg/day dropped from output

Incoming: Requested read-out: TD50. Entry: "CCBr"
Outgoing: 670

----------
System: rodent lifetime carcinogenesis bioassay, tumor incidence TD50
Test: carcinogenic potency in animals, long-term in vivo studies, CPDB compilation (AID 1745844)
Conditions: rat; strain Fischer 344; females; inhaled; site: brain, meninges; lesion: sarcoma; dosed 105 weeks; study length 105 weeks
recorded-endpoint: TD50 (mg/kg/day)
I only need the number, in mg/kg/day, no unit after it.

Incoming: Value lookup for TD50; key = "C=CC(=C)C"
Outgoing: 50800

----------
Test system: rodent lifetime carcinogenesis bioassay, tumor incidence TD50
Test: carcinogenic potency in animals, long-term in vivo studies, CPDB compilation (AID 1745844)
Conditions: rat; strain Sprague-Dawley; males; in feed; site: several sites; sites named in the paper; lesion: several types; types named in the paper; dosed 78 weeks; study length 104 weeks
recorded-endpoint: TD50

Incoming: Please give the measured TD50 for this compound: "CCOc1ccc(NC(C)=O)cc1"
Outgoing: 741 mg/kg/day

----------
Tested on: rodent lifetime carcinogenesis bioassay, tumor incidence TD50
Test: carcinogenic potency in animals, long-term in vivo studies, CPDB compilation (AID 1745844)
Conditions: mouse; strain B6C3F1; males; in feed; site: liver; lesion: hepatocellular carcinoma; dosed 60 weeks; study length 68 weeks
recorded-endpoint: TD50

Incoming: Quick check: TD50 of ClC1=C(Cl)C2(Cl)C3C(Cl)C(Cl)CC3C1(Cl)C2(Cl)Cl (stereo unspecified) ?
Outgoing: 1.49 mg/kg/day

----------
Tested on: rodent lifetime carcinogenesis bioassay, tumor incidence TD50
Experiment: carcinogenic potency in animals, long-term in vivo studies, CPDB compilation (AID 1745844)
Conditions: rat; strain Sprague-Dawley; males; i.p.; site: ear canal + skin; lesion: squamous-cell carcinoma; dosed 32 weeks; study length 79 weeks
recorded-endpoint: TD50

Incoming: I am curious: what TD50 value has been reported for "S=P(N1CC1)(N1CC1)N1CC1" ?
Outgoing: 0.122 mg/kg/day

----------
Tested on: rodent lifetime carcinogenesis bioassay, tumor incidence TD50
Test: carcinogenic potency in animals, long-term in vivo studies, CPDB compilation (AID 1745844)
Settings: rat; strain Fischer 344; females; in feed; site: lung; lesion: alveolar/bronchiolar adenoma; dosed 103 weeks; study length 104 weeks
recorded-endpoint: TD50 (mg/kg/day)
Report only the number, with the unit mg/kg/day understood.

Incoming: Tell me reported TD50 for "COc1ccccc1[N+](=O)[O-]" , tested with rodent lifetime carcinogenesis bioassay, tumor incidence TD50.
Outgoing: 666

----------
System: rodent lifetime carcinogenesis bioassay, tumor incidence TD50
Experiment: carcinogenic potency in animals, long-term in vivo studies, CPDB compilation (AID 1745844)
Details: mouse; strain B6C3F1; females; in feed; site: liver; lesion: hepatocellular adenoma; dosed 107 weeks; study length 107 weeks
recorded-endpoint: TD50

Incoming: Item: "CN(C)c1ccc(C(=C2C=CC(=[N+](C)C)C=C2)c2ccc(N(C)C)cc2)cc1" Test system: rodent lifetime carcinogenesis bioassay, tumor incidence TD50 Read-out: TD50 Value: ?
Outgoing: 75.5 mg/kg/day

----------
System: rodent lifetime carcinogenesis bioassay, tumor incidence TD50
Experiment: carcinogenic potency in animals, long-term in vivo studies, CPDB compilation (AID 1745844)
Conditions: rat; strain NBL/Cr; males; in drinking water; site: kidney; lesion: lipoma; dosed 102 weeks; study length 102 weeks
recorded-endpoint: TD50 (mg/kg/day)
Write the number in mg/kg/day without appending the unit.

Incoming: Consider the compound "[Cl][Cd][Cl]" and give its measured TD50.
Outgoing: 584

----------
System: rodent lifetime carcinogenesis bioassay, tumor incidence TD50
Assay: carcinogenic potency in animals, long-term in vivo studies, CPDB compilation (AID 1745844)
Conditions: mouse; strain CBA/Cb/Se; females; by gavage; site: liver; lesion: hepatoma; dosed 36 weeks; study length 74 weeks
recorded-endpoint: TD50

Incoming: Record request: TD50 value, item "O=S(=O)(O)O"
Outgoing: 6.27 mg/kg/day

----------
Tested on: rodent lifetime carcinogenesis bioassay, tumor incidence TD50
Assay: carcinogenic potency in animals, long-term in vivo studies, CPDB compilation (AID 1745844)
Settings: mouse; strain B6C3F1; males; in feed; site: lung; lesion: adenoma; dosed 96 weeks; study length 104 weeks
The source made the active and inactive calls. How the calls were made is not given here.
recorded-endpoint: TD50

Incoming: Any idea what TD50 was measured for "O" ?
Outgoing: 87600 mg/kg/day (inactive)

Incoming: What value of measured TD50 is listed for "CCOc1ccc(NC(C)=O)cc1" ?
Outgoing: 5280 mg/kg/day (inactive)

----------
Tested on: rodent lifetime carcinogenesis bioassay, tumor incidence TD50
Experiment: carcinogenic potency in animals, long-term in vivo studies, CPDB compilation (AID 1745844)
Conditions: rat; strain Fischer 344; males; in drinking water; site: pharynx; lesion: squamous-cell carcinoma; dosed 97 weeks; study length 97 weeks
recorded-endpoint: TD50 (mg/kg/day)
Lab book: enter the figure in mg/kg/day, no units written.

Incoming: Enter reported TD50 observed with rodent lifetime carcinogenesis bioassay, tumor incidence TD50 for "COc1cc(-c2ccc(N=Nc3c(S(=O)(=O)O)cc4cc(S(=O)(=O)O)cc(N)c4c3O)c(OC)c2)ccc1N=Nc1c(S(=O)(=O)O)cc2cc(S(=O)(=O)O)cc(N)c2c1O"
Outgoing: 466

----------
Tested on: rodent lifetime carcinogenesis bioassay, tumor incidence TD50
Assay: carcinogenic potency in animals, long-term in vivo studies, CPDB compilation (AID 1745844)
Conditions: rat; strain F344/DuCrj; males; in feed; site: forestomach; lesion: several types; types named in the paper; dosed 60 weeks; study length 60 weeks
recorded-endpoint: TD50

Incoming: Any idea what TD50 came out for "Oc1ccc2c(c1)OCO2" on rodent lifetime carcinogenesis bioassay, tumor incidence TD50?
Outgoing: 708 mg/kg/day

----------
System: rodent lifetime carcinogenesis bioassay, tumor incidence TD50
Assay: carcinogenic potency in animals, long-term in vivo studies, CPDB compilation (AID 1745844)
Conditions: rat; strain Fischer 344; males; inhaled; site: mammary gland + subcutaneous tissue; lesion: adenoma, NOS + fibroadenoma + fibroma; dosed 102 weeks; study length 104 weeks
recorded-endpoint: TD50

Incoming: Bench note: what TD50 did "ClCCl" show?
Outgoing: 917 mg/kg/day

----------
System: rodent lifetime carcinogenesis bioassay, tumor incidence TD50
Assay: carcinogenic potency in animals, long-term in vivo studies, CPDB compilation (AID 1745844)
Conditions: rat; strain Fischer 344; males; in drinking water; site: liver; lesion: neoplastic nodule; dosed 97 weeks; study length 97 weeks
recorded-endpoint: TD50 (mg/kg/day)
Express your answer in mg/kg/day, writing the number without its unit.

Incoming: What measured TD50 is associated with "COc1cc(-c2ccc(N=Nc3c(S(=O)(=O)O)cc4cc(S(=O)(=O)O)cc(N)c4c3O)c(OC)c2)ccc1N=Nc1c(S(=O)(=O)O)cc2cc(S(=O)(=O)O)cc(N)c2c1O" on rodent lifetime carcinogenesis bioassay, tumor incidence TD50?
Outgoing: 65.3
